Readout Type: melting point

# annotated cases, reported melting point shown
- Compound: "O=C1CC(c2cccnc2)CN1 (centres undefined)"
  Result: "69 to 71 °C"
- Compound: "Cc1nnc(-c2ccc(C(=O)O)cc2)n1C"
  Result: "269 to 271 °C"
- Compound: "N#Cc1cnc2c(F)ccc(F)c2c1Cl"
  Result: "172 to 174 °C"

IN: Given `Cc1cc(-c2nc3ccccc3n2C)c(=O)[nH]n1` , respond with its melting point.
OUT: 334 to 336 °C

IN: Given `N#CCC(=O)c1ccc(F)c(Cl)c1` , respond with its melting point.
OUT: 59 to 61 °C

IN: Given `Cc1cn2c(CO)c(C)nc2s1` , respond with its melting point.
OUT: 149 to 151 °C

IN: Given `Fc1cc(CBr)c2ncccc2c1` , respond with its melting point.
OUT: 96 to 98 °C

IN: Given `CN(C)c1ncncc1N` , respond with its melting point.
OUT: 97 to 99 °C

IN: Given `Nc1ccc(-n2cccn2)nc1` , respond with its melting point.
OUT: 97 to 99 °C

IN: Given `Cc1ccccc1-c1nnc(N)o1` , respond with its melting point.
OUT: 160 to 162 °C

IN: Given `CCSc1ccc(Cl)cc1C(=O)O` , respond with its melting point.
OUT: 154 to 156 °C

IN: Given `O=C(Nc1cccc([N+](=O)[O-])c1)OCC(F)(F)F` , respond with its melting point.
OUT: 98 to 100 °C

IN: Given `O=C(O)CCNC(=O)c1c[nH]c2ccccc12` , respond with its melting point.
OUT: 157 to 159 °C

IN: Given `O=C(O)CCc1ccsc1` , respond with its melting point.
OUT: 54 to 58 °C

IN: Given `Fc1ccc(-c2csc3ncnc(S)c23)cc1` , respond with its melting point.
OUT: 244 to 246 °C

IN: Given `Cc1ccc(OCCC(=O)O)cc1C` , respond with its melting point.
OUT: 155 to 157 °C

IN: Given `O=C(O)c1cc(-c2cccc(Cl)c2)on1` , respond with its melting point.
OUT: 175 to 177 °C

IN: Given `Cc1cc(C(=O)CCl)c(C)n1-c1cccc(C(F)(F)F)c1` , respond with its melting point.
OUT: 96 to 98 °C

IN: Given `O=C(O)CCc1nc2sc3c(c2c(=O)[nH]1)CCC3` , respond with its melting point.
OUT: 220 to 222 °C

IN: Given `Nc1ccc(NS(=O)(=O)c2c(Cl)cccc2Cl)cc1` , respond with its melting point.
OUT: 161 to 163 °C

IN: Given `CS(=O)(=O)NCc1cccc(Br)c1` , respond with its melting point.
OUT: 66 to 68 °C

IN: Given `CN1CCc2ccc(C(=O)O)cc21` , respond with its melting point.
OUT: 165 to 167 °C

IN: Given O=S1(=O)CCNC(c2ccccc2)C1 (centres undefined) , respond with its melting point.
OUT: 124 to 126 °C

IN: Given `CCCOc1ccc2[nH]cc(CO)c2c1` , respond with its melting point.
OUT: 89 to 91 °C

IN: Given `O=C1NCNC(=O)N1` , respond with its melting point.
OUT: 290 to 292 °C

IN: Given `NC(=S)Nc1cccc(Oc2ccccc2)c1` , respond with its melting point.
OUT: 119 to 121 °C
